target_or_test_system: T1, Anti-CD28 scFv (VH-linker 1-VL) (biotinylated (site not stated))
T1 construct: biotinylated and captured on neutravidin coated plates in the phage ELISA
T1 sequence (scFv, as listed by the source): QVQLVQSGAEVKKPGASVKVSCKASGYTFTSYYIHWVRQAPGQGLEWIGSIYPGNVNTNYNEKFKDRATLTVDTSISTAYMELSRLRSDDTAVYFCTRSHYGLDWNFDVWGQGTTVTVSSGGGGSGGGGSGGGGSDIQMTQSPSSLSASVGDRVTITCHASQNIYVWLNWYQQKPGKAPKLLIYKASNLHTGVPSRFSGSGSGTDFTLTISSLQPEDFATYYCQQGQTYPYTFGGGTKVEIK
assay: phage binding ELISA on captured biotinylated anti-CD28 scFv;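 further: crude clonal phage supernatants applied to the wells, bound phage read out with an HRP-conjugated anti-M13 antibody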
Threshold 1: CD28 scFv signal strictly smaller gives Criterion met, otherwise Criterion not met.

MAWCPWYLWDECFN [Phage-348]
Criterion not met
VDWCPAHMWNECYN [Phage-419]
Criterion met
LHWCPITMWTYCYY [Phage-409]
Criterion not met
MDWCPAYLWDECFA [Phage-325]
Criterion not met
MDWCPRHLWVHCFS [Phage-344]
Criterion not met
MHWCPLYLWDECFY [Phage-366]
Criterion not met
MDWCPMFLWHECFS [Phage-360]
Criterion not met
MDWCPRYLWVDCFA [Phage-372]
Criterion met
MHWCPLHLWNECFA [Phage-378]
Criterion met
MYWCPKYMWSECFA [Phage-418]
Criterion met
MDWCPRALWNVCFA [Phage-329]
Criterion not met
ILRCQMNLQDECLN [Phage-385]
Criterion met
MDWCPRHMWHECFH [Phage-402]
Criterion not met
MNWCPIHMWNQCFA [Phage-407]
Criterion not met
LDWCPRHLWALCFN [Phage-349]
Criterion not met
MSWCPRFMWHECFN [Phage-411]
Criterion not met

Value source: patent US20230357447A1
